// provenance: the supplement of paper PMC9170038

Test system: MS2 coat protein
Assay: apparent KD of MS2 coat protein; designed switch direction (-1 OFF switch, 1 ON switch): 1; higher = weaker reporter binding
Conditions: input ligand: FMN 200 uM
reportedMetric: apparent KD of MS2 coat protein (nM)
Unit nM implied. Number only.

For this sequence ( AUGCCAAAUGGAGGAUAUGGAGCCUUAUUGGCUCCAGAAGGUCAGACAUGAGGAUCACCCAUGUGGCAGUGGUCUAAUGACCAC [Eli NG1ss - 39] (Eterna round: R96, puzzle: Same State NG 1) ), measured apparent KD of MS2 coat protein is 126

For this sequence ( CGUCGUUUGGUAGGAUAUCGCUAUACAUGAGGAUCACCCAUGUUUACCACGCUGGUUUUUCAUACCGAGAAGGAUUCUGAUGUU [salish99_SSNG02_r04_017] (Eterna round: R96, puzzle: Same State NG 2) ), measured apparent KD of MS2 coat protein is 16

For this sequence ( GCCGUAAUAACAUGAGGAUCACCCAUGUGCGCGAGAGUGGAUGAGGAUAUCGAUGGGUUUCCCGUCGAGAAGGCGUGGGUCGGC [JL SSNG3 3.98] (Eterna round: R96, puzzle: Same State NG 3) ), measured apparent KD of MS2 coat protein is 28
